- Tested on: NIK;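 further: KINOMEscan scanMAX binding as percent activity remaining versus control; lower means stronger binding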
- Construct: gene MAP3K14
- conditionsUsed: Compound Concentration (nM):1000
property: Percent Control

• NS(=O)(=O)c1ccc(N/N=C2\C(=O)Nc3ccc(C(=O)NCCc4c[nH]cn4)cc32)cc1 [GW300660X] = 74%
• Cl.O=C(O[C@H]1CN[C@H](C#Cc2cc3ncnc(Nc4ccc5c(cnn5Cc5ccccc5)c4)c3s2)C1)N1CCOCC1 [GSK200398A] = 100%
• COc1cc2ncnc(Nc3ccc4c(cnn4Cc4ccccc4)c3)c2cc1OC.Cl [GW282449A] = 100%
• CCS(=O)(=O)c1ccc(OC)c(Nc2ncc(-c3cccc(F)c3)o2)c1 [GW621970X] = 93%
• COc1cc(/C=N/Nc2ncnc3[nH]ncc23)ccc1O [GW578748X] = 100%
